Test system: vaccinia virus
Type: cell-based
Quantity kind: VACCINIA PLAQUE ASSAY 2

| Compound | Assayed target | VACCINIA PLAQUE ASSAY 2 |
| --- | --- | --- |
| CCOC(=O)c1ccc(-c2ccc3c(-c4ccc(C#N)cc4)n[nH]c3n2)cc1 [APcK-55] | vaccinia virus | NO PLAQUES |
| CCOC(=O)c1ccc(-c2n[nH]c3nc(-c4cc(OC)cc(OC)c4)ccc23)cc1 [APcK-108] | vaccinia virus | SMALL PLAQUES |
| O=C1NC(=O)/C(=C/c2ccc3c(c2)OC(F)(F)O3)S1 [AS-604850, reference compound] | vaccinia virus | NO PLAQUES |
| O=C1NC(=O)/C(=C/c2ccc3nccnc3c2)S1 [AS-604240, reference compound] | vaccinia virus | PINPOINT PLAQUES |
| COc1ccccc1NS(=O)(=O)c1cccc(NC(=O)CCOc2ccc3c(=O)[nH]ccc3c2)c1 [JAK2F] | vaccinia virus | SLIGHTLY SMALLER PLAQUES |

Please give VACCINIA PLAQUE ASSAY 2, item by item, for the list that follows.
1. COc1ccccc1Nc1cc(-c2ccc([N+](=O)[O-])cc2)ncn1 [Eph2_wbz 203]
2. COc1ccc(-c2n[nH]c3nc(-c4ccc(O)cc4OC)ccc23)cc1 [APcK-31]
3. CC(=O)Nc1cccc(-c2ccc3c(-c4ccc(F)cc4)n[nH]c3n2)c1 [APcK-103]
4. Fc1ccc(CNc2nccn3c(Br)cnc23)cc1 [LG2-91]
5. COc1cc(OC)cc(-c2cnc3c(NCC4CC4)nccn23)c1 [LG2-102]
6. Cc1ccc(NC(=O)c2ccc(CN3CCN(Cc4ccc(I)cc4)CC3)cc2)cc1Nc1nccc(-c2cccnc2)n1 [STLL3]
7. COc1cc(OC)cc(-c2ccc3c(-c4ccc(Cl)c(F)c4)n[nH]c3n2)c1 [APcK-111]

1. SMALL PLAQUES
2. SMALL PLAQUES
3. NO PLAQUES
4. NO PLAQUES
5. NO PLAQUES
6. NO PLAQUES
7. PINPOINT PLAQUES

====

Tested on: gamma-herpes variant that expresses GFP under a CMV promoter (GHV-Bac-GFP)
Experiment: Herpes virus assay: GHV-Bac-GFP infection of 3T3 monolayers, cytopathic effect and GFP spread
Type: cell-based, gamma-herpes virus
Conditions: 3T3 cells, GHV-Bac-GFP, 10 μM, after 7 days
Protocol: All herpes viruses share the property of establishing life-long infection in their host. […] To determine whether tyrosine kinases participate in gamma-herpes virus infections, confluent monolayers of 3T3 cells were exposed and plated in optical 96 well dishes to the library of compounds of the present invention described herein for 1 hour. […]
Quantity kind: Herpes phenotype group

These solved cases illustrate the format of a correct answer.
| Item smiles | Herpes phenotype group |
| --- | --- |
| Cc1ccc(NC(=O)c2ccc(CN3CCN(C)CC3)cc2)cc1Nc1nccc(-c2cncc(-c3ccncc3)c2)n1 | (ii) |
| Brc1cnc2c(Nc3ccccc3)nccn12 | (iii) |
| CC(=O)Nc1ccc(-c2ccc3c(-c4ccc(Br)cc4F)n[nH]c3n2)cc1 | (iii) |
| CC(=O)Nc1cccc(-c2ccc3c(-c4ccc(Cl)c(Cl)c4)n[nH]c3n2)c1 | (iii) |
| CCOC(=O)c1ccc(-c2ccc3c(-c4ccc(C)c(F)c4)n[nH]c3n2)cc1 | (iii) |
| CC(=O)c1cccc(-c2cnc3c(Nc4ccc(N5CCOCC5)cc4)nccn23)c1 | (iii) |
| Cc1ccc(NC(=O)c2ccc(CN3CCOCC3)cc2)cc1Nc1nccc(-c2cccnc2)n1 | (iii) |
| Nc1cccc(-c2ccc3nnc(-c4ccco4)n3n2)c1 | (ii) |

Field Herpes phenotype group (entry Brc1cnc2c(Nc3ccc(N4CCOCC4)cc3)nccn12 ) reads (iii)

====

System: vaccinia virus
Format: cell-based
Quantity kind: VACCINIA PLAQUE ASSAY 2

Worked cases, VACCINIA PLAQUE ASSAY 2 given:
| Item smiles | VACCINIA PLAQUE ASSAY 2 |
| --- | --- |
| CCOC(=O)c1ccc(-c2ccc3c(-c4ccc(Cl)c(F)c4)n[nH]c3n2)cc1 | SMALL PLAQUES |
| Brc1cnc2c(NCC3CC3)nccn12 | PINPOINTS |
| CCOC(=O)c1ccc(-c2n[nH]c3nc(-c4ccc(NC(C)=O)cc4)ccc23)cc1 | SMALL PLAQUES |
| COc1ccc(Nc2nccn3c(Br)cnc23)cc1 | PINPOINTS |
| CN(C)CCNC(=O)c1ccc(-c2cnc3c(Nc4ccc(Oc5ccccc5)cc4)nccn23)cc1 | NO PLAQUES |
| O=C(Nc1cccc(-c2ccc3nnc(-c4ccco4)n3n2)c1)Sc1ccccc1 | SMALL PLAQUES |
| CC(=O)Nc1ccc(-c2ccc3c(-c4ccc(Br)cc4)n[nH]c3n2)cc1 | SMALL PLAQUES |
| Brc1cnc2c(NCc3cccs3)nccn12 | NO PLAQUES |
| Cc1ccc(NC(=O)c2ccc(CN3CCN(CCF)CC3)cc2)cc1Nc1nccc(-c2cccnc2)n1 | NO PLAQUES |
| CC(=O)Nc1ccc(-c2ccc3c(-c4ccc(C)c(F)c4)n[nH]c3n2)cc1 | SMALL PLAQUES |

// each compound listed below needs its VACCINIA PLAQUE ASSAY 2
1. COc1ccc(-c2nc(C(N)=O)c3[nH]c(=O)n(-c4ccc(C)cc4)c3n2)cc1OC
2. O=C(NCCO)c1cccc(-c2cnc3c(NCc4cccs4)nccn23)c1
3. Cc1ccc(-n2c(=O)[nH]c3c(C(N)=O)nc(-c4ccc(-c5cccs5)s4)nc32)cc1
4. COC(=O)c1ccc(-c2cc(Nc3ccccc3OC)ncn2)cc1OC
5. CC(=O)Nc1cccc(-c2ccc3c(-c4ccc(Br)c(F)c4)n[nH]c3n2)c1
6. Cc1ccc(NC(=O)c2ccc(CN3CCN(CCO)CC3)cc2)cc1Nc1nccc(-c2cccnc2)n1
7. O=C(c1ccccc1)c1ccc(-c2ccc3c(-c4ccc(Cl)c(F)c4)n[nH]c3n2)cc1

PINPOINTS
PINPOINTS
SLIGHTLY SMALLER PLAQUES
SLIGHTLY SMALLER PLAQUES
NO PLAQUES
SMALL PLAQUES
NO PLAQUES

Below is a list of compounds. For each, state its recorded VACCINIA PLAQUE ASSAY 2.
1. CC(=O)Nc1ccc(-c2ccc3c(-c4ccc(Cl)cc4Cl)n[nH]c3n2)cc1
2. COc1ccccc1Nc1cc(-c2ccc(NC(C)=O)cc2)ncn1

["SMALL PLAQUES", "SMALL PLAQUES"]
